# Subject of test: human LPA1 receptor (Homo sapiens (Human), UniProt Q92633)
# Sequence (Q92633 whole entry): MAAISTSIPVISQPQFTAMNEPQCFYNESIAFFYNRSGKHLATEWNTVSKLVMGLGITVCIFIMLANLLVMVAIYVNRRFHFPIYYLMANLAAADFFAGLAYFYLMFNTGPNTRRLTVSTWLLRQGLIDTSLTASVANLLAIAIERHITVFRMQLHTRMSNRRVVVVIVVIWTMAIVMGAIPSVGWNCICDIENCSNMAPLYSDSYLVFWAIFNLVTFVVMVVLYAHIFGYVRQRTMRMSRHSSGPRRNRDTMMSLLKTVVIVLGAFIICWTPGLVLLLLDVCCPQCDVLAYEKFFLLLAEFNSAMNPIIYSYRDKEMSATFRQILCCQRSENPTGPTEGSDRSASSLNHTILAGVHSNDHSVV
# Method notes: Beta-arrestin recruitment assay to determine IC50 values for human LPAR1
# Condition: antagonist mode, Tango EDG2-bla U2OS cells, LPA 18:1 500 nM final
Observation type: IC50 (nM)

Worked cases, IC50 given:
Molecule | Subject of test | Observation type | Units text | Measured result
Cc1ccc(NC(=O)C2(c3ccccc3C(C)C)CCN(C(=O)CNCCO)CC2)c(OC(F)F)n1 [Ex 12-50] | human LPA1 receptor (Homo sapiens (Human), UniProt Q92633) | IC50 | nM | 9
COc1ccc(NC(=O)C2(c3ccccc3C(C)C)CN(C(=O)CC(C)(C)C(=O)O)C2)c(OC)n1 [Ex 12-86] | human LPA1 receptor (Homo sapiens (Human), UniProt Q92633) | IC50 | nM | 27
Cc1ccc(NC(=O)C2(c3ccccc3C(C)C)CN(S(=O)(=O)C3(CC(=O)O)CC3)C2)c(OC(F)F)n1 [Ex 13-14] | human LPA1 receptor (Homo sapiens (Human), UniProt Q92633) | IC50 | nM | 10
Cc1ccc(NC(=O)C2(c3ccccc3C(C)C)CN(C(=O)OCC3(C(=O)O)COC3)C2)c(OC(F)F)n1 [Ex 14-14] | human LPA1 receptor (Homo sapiens (Human), UniProt Q92633) | IC50 | nM | 30
CCOC(=O)C(F)(F)CC(=O)N1CC(C(=O)Nc2ccc(C)nc2OC(F)F)(c2ccccc2C(C)C)C1 [Ex 12-111] | human LPA1 receptor (Homo sapiens (Human), UniProt Q92633) | IC50 | nM | 18
Cc1ccc(NC(=O)C2(c3ccccc3C(C)C)CN(c3ccnc(C(=O)O)n3)C2)c(OC(F)F)n1 [Ex 18-11] | human LPA1 receptor (Homo sapiens (Human), UniProt Q92633) | IC50 | nM | 34

[I] Cc1ccc(NC(=O)C2(c3ccccc3C(C)C)CN(Cc3ccnc(C(=O)O)c3)C2)c(OC(F)F)n1 [Ex 11-51]
[II] CC(C)c1ccccc1C1(C(=O)Nc2cccnc2OC(F)F)CN(c2ccc(C#N)cn2)C1 [Ex 18-23]
[III] CCOC(=O)c1cnc(N2CC(C(=O)Nc3ccc(C)nc3OC(F)F)(c3ccccc3C(C)C)C2)o1 [Ex 18-31]
IN: Your job: order these 3 records by IC50, ascending. Order the labels as requested and list them.
OUT: II, III, I

[P] Cc1ccc(NC(=O)C2(c3ccccc3C(C)C)CN(Cc3nc(CC(=O)O)co3)C2)c(OC(F)F)n1 [Ex 11-59]
[Q] Cc1ccc(NC(=O)C2(c3ccccc3C(C)C)CN(C(=O)OCC3(C(=O)O)CC3)C2)c(OC(F)F)n1 [Ex 14-12]
[R] Cc1ccc(NC(=O)C2(c3ccccc3C(C)C)CN(C(=O)CCn3cnnc3)C2)c(OC(F)F)n1 [Ex 12-28]
[S] Cc1ccc(NC(=O)C2(c3ccccc3C(C)C)CN(CC3(CC(=O)O)CC3)C2)c(OC(F)F)n1 [Ex 11-68]
[T] Cc1ccc(NC(=O)C2(c3ccccc3C(C)C)CN(Cc3ccno3)C2)c(OC(F)F)n1 [Ex 11-36]
IN: hey, can you rank those molecules up there by IC50? biggest number first please Show the ranking through the labels, in the order asked for.
OUT: R, P, S, T, Q
